Let's look at some molecules and their measured Cell viability.
# Test system: Vero
# MEASUREMENT DESCRIPTION: Cytotoxicity against African green monkey Vero cells at 394 ug/mL by neutral red dye uptake assay relative to control
# Type: cell-based
# RUN PARAMETERS: chlorocebus sabaeus
Kindly answer with a numeric value in %, unit omitted.

Use these answered entries as a reference point.
1) Cc1ccc(C2SCC(=O)N2CCN2CCCCC2)cc1 (configuration not stated)
51
2) O=C1CSC(c2ccccc2[N+](=O)[O-])N1CCN1CCCCC1 (configuration not stated)
100
3) O=C1CSC(c2c(Cl)cccc2Cl)N1CCN1CCCCC1 (configuration not stated)
32
4) O=C1CSC(c2cccc(O)c2)N1CCN1CCCCC1 (configuration not stated)
100
5) O=C1CSC(c2ccccc2Cl)N1CCN1CCCCC1 (configuration not stated)
31
6) O=C1CSC(c2cccc([N+](=O)[O-])c2)N1CCN1CCCCC1 (configuration not stated)
60
7) COc1cccc(C2SCC(=O)N2CCN2CCCCC2)c1 (configuration not stated)
57
8) O=C1CSC(c2cccc(F)c2)N1CCN1CCCCC1 (configuration not stated)
60

Q: I'd like to know its Cell viability. The molecule in question is COc1ccccc1C1SCC(=O)N1CCN1CCCCC1 (configuration not stated)
Ans: 67

Q: Field entry: O=C1CSC(c2ccccc2F)N1CCN1CCCCC1 (configuration not stated)
Ans: 45

Q: Cool, now O=C1CSC(c2cccc(Cl)c2)N1CCN1CCCCC1 (configuration not stated)
Ans: 45

Q: Next entry: O=C1CSC(c2ccc([N+](=O)[O-])cc2)N1CCN1CCCCC1 (configuration not stated)
Ans: 66

====

# Test system: Vero
# MEASUREMENT DESCRIPTION: Cytotoxicity against African green monkey Vero cells at 49 ug/mL by neutral red dye uptake assay relative to control
# Format: cell-based
# RUN PARAMETERS: chlorocebus sabaeus
Catalogue of Cell viability readings, one per entry.
Give the value in % but do not write % after it.

Q: I'd like to know its Cell viability. The compound in question is O=C1CSC(c2ccc(Cl)cc2)N1CCN1CCCCC1 (stereo unspecified)
Ans: 84

Q: Can you handle O=C1CSC(c2cccc(F)c2)N1CCN1CCCCC1 (stereo unspecified) next?
Ans: 97

Q: Could you do the same for O=C1CSC(c2ccc(O)cc2)N1CCN1CCCCC1 (stereo unspecified) , please?
Ans: 96

Q: Here is the next compound: O=C1CSC(c2ccccc2F)N1CCN1CCCCC1 (stereo unspecified)
Ans: 95

Q: Repeat with O=C1CSC(c2cccc(O)c2)N1CCN1CCCCC1 (stereo unspecified)
Ans: 100

Q: What about this compound? O=C1CSC(c2c(Cl)cccc2Cl)N1CCN1CCCCC1 (stereo unspecified)
Ans: 100

Q: Another: O=C1CSC(c2ccc(F)cc2)N1CCN1CCCCC1 (stereo unspecified)
Ans: 100

Q: What do you have for COc1ccccc1C1SCC(=O)N1CCN1CCCCC1 (stereo unspecified) ?
Ans: 100

Q: Another compound: COc1ccc(C2SCC(=O)N2CCN2CCCCC2)cc1 (stereo unspecified)
Ans: 100

Q: Same question, O=C1CSC(c2cccc([N+](=O)[O-])c2)N1CCN1CCCCC1 (stereo unspecified) this time
Ans: 100

Q: Param item: O=C1CSC(c2cccc(Cl)c2)N1CCN1CCCCC1 (stereo unspecified)
Ans: 100

Q: Record: O=C1CSC(c2ccccc2[N+](=O)[O-])N1CCN1CCCCC1 (stereo unspecified)
Ans: 100

Q: Note, next up: Cc1ccc(C2SCC(=O)N2CCN2CCCCC2)cc1 (stereo unspecified)
Ans: 100

Q: How about this compound: COc1cccc(C2SCC(=O)N2CCN2CCCCC2)c1 (stereo unspecified)
Ans: 90

Q: Similarly, O=C1CSC(c2ccc([N+](=O)[O-])cc2)N1CCN1CCCCC1 (stereo unspecified) ?
Ans: 100

Q: Query O=C1CSC(c2ccccc2Cl)N1CCN1CCCCC1 (stereo unspecified) next
Ans: 100
